Measured Kb, listed per entry for reference.
Species on record: Rattus norvegicus
Assay Protocol: Competitive antagonist activity on oxytocin contractile action in isolated rat uterus
Type: functional
Test Parameters: read-out: pA2 (converted)
Measured Attribute: Kb (nM)

[[record]]
input_smiles = "CC[C@H](C)[C@H](NC(=O)[C@@H](Cc1c[nH]c2ccccc12)NC(=O)CC12CC3CC(CC(C3)C1)C2)C(=O)N[C@@H](CCC(N)=O)C(=O)N[C@@H](CC(N)=O)C(=O)N[C@@H](Cc1c[nH]c2ccccc12)C(=O)N1CCC[C@H]1C(=O)N[C@@H](CCCN=C(N)N)C(=O)NCC(N)=O"
numeric_result = 302

[[record]]
input_smiles = "CC[C@H](C)[C@@H]1NC(=O)[C@@H](Cc2c[nH]c3ccccc23)NC(=O)CC2(CCCCC2)SSC[C@@H](C(=O)N2CCC[C@H]2C(=O)N[C@@H](CCCN=C(N)N)C(=O)N[C@@H](Cc2c[nH]c3ccccc23)C(N)=O)NC(=O)[C@H](CC(N)=O)NC(=O)[C@H](CCC(N)=O)NC1=O"
numeric_result = 9.33

[[record]]
input_smiles = "CC[C@H](C)[C@@H]1NC(=O)[C@@H](Cc2c[nH]c3ccccc23)NC(=O)CC2(CCCCC2)SSC[C@@H](C(=O)N2CCC[C@H]2C(=O)N[C@@H](Cc2c[nH]c3ccccc23)C(=O)NCC(N)=O)NC(=O)[C@H](CC(N)=O)NC(=O)[C@H](CCC(N)=O)NC1=O"
numeric_result = 6.03

[[record]]
input_smiles = "CC[C@H](C)[C@@H]1NC(=O)[C@@H](Cc2c[nH]c3ccccc23)NC(=O)CC2(CCCCC2)SSC[C@@H](C(=O)N[C@@H](Cc2c[nH]c3ccccc23)C(=O)N[C@@H](CCCN=C(N)N)C(=O)NCC(N)=O)NC(=O)[C@H](CC(N)=O)NC(=O)[C@H](CCC(N)=O)NC1=O"
numeric_result = 8.71

